Quick list: growth per entry.
# Test system: HCT-116 colon
# Run description: NCI-60 one-dose screen, 48 h (100 = growth as untreated, 0 = no growth, -100 = all killed)
# Measurement conditions: 10 µM
The panel holds about 83,000 compounds, 20% with a hit somewhere; the sample as a whole holds those more often.
A number alone suffices; assume %.

Return the recorded growth value; entry: CCOC(=O)c1ccc(Nc2sc(C(=O)c3cccc([N+](=O)[O-])c3)c(N)c2C#N)cc1
0.851

Return the recorded growth value; entry: CCN(CC)c1ccc2nc3ccc(=[N+](CC)CC)cc-3oc2c1
-40.7

Return the recorded growth value; entry: COc1ncnc2c1cnn2C
103

Return the recorded growth value; entry: C#CC(C(C)C)N(CCO)CCCC (configuration not stated)
104

Return the recorded growth value; entry: CCOC(=O)CCCC(=O)OCC
97.9

More entries:
Return the recorded growth value; entry: CC(=O)/C(Cc1ccccc1)=N/O
87.4

Return the recorded growth value; entry: COC(=O)Nc1nc2ccc(C(=O)c3cccs3)cc2[nH]1
11.7
